# credit: PubChem BioAssay (Tox21)

Assay: qHTS assay for small molecules that induce genotoxicity in human embryonic kidney cells expressing luciferase-tagged ATAD5 - cell viability (AID 651634); note: nearly all actives have a fitted effect of over 25% in size; note: potency is the fitted concentration of half-maximal effect
Settings: HEK293T ATAD5-luc cells viability, CellTiter-Fluor, 15.5 h; series mostly up to 83.3 µM
Results filed as inconclusive are left out. Active and inactive are the calls of the source. Calls come from the whole dose curve.
Observation Type: Potency

> print(dat)
                                   compound  measured
1                       Oc1ccc(Cl)c2cccnc12  inactive
2  CC1(C)S[C@@H]2[C@H](NC(=O)C(c3ccccc3)S(=O)(=O)O)C(=O)N2[C@H]1C(=O)O (stereo partly specified)  inactive
3  C=CC(C)(CCC=C(C)C)OC(=O)CC(C)C (stereo unspecified)  inactive
4  C[C@@]12CCC[C@H]1[C@@H]1CC[C@H]3C[C@@H](O)CC[C@]3(C)[C@H]1CC2  inactive
5                                  Cc1ccco1  inactive

Parameter requested: Potency. Apply to each item below.
1. CN1C(=O)c2ccccc2C1=O
2. O=[N+]([O-])c1ccc(O/N=C/c2cc(Br)c(O)c(Br)c2)c([N+](=O)[O-])c1
3. C[C@@H](O[C@H]1OCCN(Cc2n[nH]c(=O)[nH]2)[C@H]1c1ccc(F)cc1)c1cc(C(F)(F)F)cc(C(F)(F)F)c1
4. CC(C)Nc1cccnc1N1CCN(C(=O)c2cc3cc(NS(C)(=O)=O)ccc3[nH]2)CC1
5. C=Cc1ccc(S(=O)(=O)O)cc1

A)
1: inactive; 2: 24.2 µM (active); 3: 23.7 µM (active); 4: inactive; 5: inactive

Q) Please give measured Potency of the following entry: Cc1ccc2c(Br)cc(Br)c(O)c2n1
A) inactive
